target_or_test_system: recombinant TSHR-His (UniProt P16473 21-414)
Sequence (P16473 21-414): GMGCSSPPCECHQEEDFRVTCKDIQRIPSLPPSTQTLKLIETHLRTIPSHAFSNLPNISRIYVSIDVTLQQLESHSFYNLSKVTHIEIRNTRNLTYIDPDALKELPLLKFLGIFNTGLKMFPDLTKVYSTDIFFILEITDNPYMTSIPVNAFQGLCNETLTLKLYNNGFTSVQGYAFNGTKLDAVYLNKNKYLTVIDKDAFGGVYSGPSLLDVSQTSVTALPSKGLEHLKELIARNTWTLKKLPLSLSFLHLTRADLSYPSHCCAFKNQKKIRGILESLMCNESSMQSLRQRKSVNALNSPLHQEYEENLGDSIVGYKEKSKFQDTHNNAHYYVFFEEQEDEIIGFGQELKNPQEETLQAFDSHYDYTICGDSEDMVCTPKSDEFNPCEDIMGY
method_summary: SPR; 5 mM Mg2+; kon 7.686e4 M-1s-1, koff 9.023e-4 s-1; 25 C; Flow: DPBS, 5 mM MgCl2, 4.5 g/L glucose, 0.1 mg/mL yeast tRNA, 1 mg/mL BSA, 4 C 30 min; SPR: DPBS, 5 mM Mg2+, pH 7.4, 25 C
settings: protein: commercial; tags: His; label: FAM (flow); biotin (pull-down); stem-loops (NUPACK predicted)
quantity_name: Kd (nM)
One number for each entry, in nM.

State the recorded Kd for this entry: YC3 (structured_DNA) DNA: ACCGACCGTGCTGGACTCAGATGAACAATCGATGGAAGATTGGGTCGCACCGGCCTCTTTCACTATGAGCGAGCCTGGCG
11.7

The origin of these recorded values is paper PMC12822413.
